tested on: T1, Mouse His-GDF15: HIS-tagged mouse GDF15 (mouse, UniProt Q9Z0J7 189-303)
T1 construct: not shown: His tag
T1 sequence (looked up): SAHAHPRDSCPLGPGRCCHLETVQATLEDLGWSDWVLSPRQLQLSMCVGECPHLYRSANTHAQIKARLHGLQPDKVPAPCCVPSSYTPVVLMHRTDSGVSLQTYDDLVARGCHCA
test description: Biacore SPR, IgG captured via anti-human Fc, GDF15 in flow
Each entry below carries its reported Kd.
value type: Kd

| binder | value type | observed result |
| --- | --- | --- |
| ABGDF15-G (antibody, human IgG1, kappa, V domains shown, captured through anti-human Fc in the Biacore assay) VH: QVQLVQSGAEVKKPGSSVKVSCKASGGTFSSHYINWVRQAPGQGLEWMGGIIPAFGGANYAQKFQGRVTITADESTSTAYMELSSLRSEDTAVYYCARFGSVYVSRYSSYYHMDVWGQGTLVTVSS VL: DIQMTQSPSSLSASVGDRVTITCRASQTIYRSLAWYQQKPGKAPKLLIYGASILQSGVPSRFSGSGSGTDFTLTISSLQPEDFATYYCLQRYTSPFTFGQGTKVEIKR | Kd | 0.154 nM |
| ABGDF15-E (antibody, human IgG1, lambda, V domains shown, captured through anti-human Fc in the Biacore assay) VH: EVQLVQSGAEVKKPGESLKISCKGSGYSFTSYWIGWVRQMPGKGLEWMGVIDPGGSYTIYSPSFQGQVTISADKSISTAYLQWSSLKASDTAMYYCARYGRYGTYFDYWGQGTLVTVSS VL: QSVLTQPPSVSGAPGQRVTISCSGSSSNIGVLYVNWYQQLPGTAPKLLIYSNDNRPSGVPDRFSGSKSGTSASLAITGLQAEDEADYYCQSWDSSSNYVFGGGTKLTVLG | Kd | 0.079 nM |
| ABGDF15-A (antibody, human IgG1, kappa, V domains shown, captured through anti-human Fc in the Biacore assay) VH: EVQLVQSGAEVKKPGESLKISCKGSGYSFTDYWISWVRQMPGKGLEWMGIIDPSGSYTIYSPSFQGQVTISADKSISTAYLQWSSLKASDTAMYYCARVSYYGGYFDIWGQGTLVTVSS VL: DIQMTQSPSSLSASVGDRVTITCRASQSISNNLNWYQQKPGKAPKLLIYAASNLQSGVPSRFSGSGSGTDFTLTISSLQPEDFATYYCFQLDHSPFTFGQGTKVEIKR | Kd | 0.0568 nM |
| ABGDF15-B (antibody, human IgG1, lambda, V domains shown, captured through anti-human Fc in the Biacore assay) VH: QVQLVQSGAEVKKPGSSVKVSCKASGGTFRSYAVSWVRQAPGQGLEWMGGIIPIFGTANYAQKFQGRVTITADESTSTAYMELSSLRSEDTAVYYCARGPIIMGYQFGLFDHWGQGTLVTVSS VL: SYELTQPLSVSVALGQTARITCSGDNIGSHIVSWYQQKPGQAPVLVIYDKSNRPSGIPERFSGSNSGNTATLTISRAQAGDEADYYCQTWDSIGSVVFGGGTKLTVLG | Kd | 0.237 nM |
| ABGDF15-C (antibody, human IgG1, lambda, V domains shown, captured through anti-human Fc in the Biacore assay) VH: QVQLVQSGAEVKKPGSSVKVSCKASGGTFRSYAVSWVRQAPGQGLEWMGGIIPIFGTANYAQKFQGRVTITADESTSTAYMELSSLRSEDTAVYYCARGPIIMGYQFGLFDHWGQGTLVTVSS VL: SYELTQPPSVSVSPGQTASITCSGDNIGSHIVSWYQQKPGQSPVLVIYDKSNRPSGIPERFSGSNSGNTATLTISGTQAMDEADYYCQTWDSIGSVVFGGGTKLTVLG | Kd | 0.116 nM |

These entries and their values trace back to patent US20190135908A1.
